Measured values drawn from ChEMBL document CHEMBL6127042 for this set.

Tested on: Mycobacterium tuberculosis
Protocol Summary: Antitubercular activity against multidrug resistant Mycobacterium tuberculosis 16995 assessed as bacterial growth inhibition incubated for 7 days in 7H9 medium by alamar blue staining based microplate fluorometric analysis
Type: functional
Measurement Conditions: Mycobacterium tuberculosis, 16995, 168 h; time 7 day
Binarize MIC at 0.1 µM; below is 1 (yes), at or above is 0 (no).

• O=C(O)CNC(=O)CCON=C1CCC(CN2CCN(c3nc(=O)c4cc(C(F)(F)F)cc([N+](=O)[O-])c4s3)CC2)CC1 (stereo not drawn) = 0 (no)
• CC(C)(C)OC(=O)NCCON=C1CCC(CN2CCN(c3nc(=O)c4cc(C(F)(F)F)cc([N+](=O)[O-])c4s3)CC2)CC1 (stereo not drawn) = 1 (yes)
• CC(C)(C)OC(=O)CNC(=O)CCON=C1CCC(CN2CCN(c3nc(=O)c4cc(C(F)(F)F)cc([N+](=O)[O-])c4s3)CC2)CC1 (stereo not drawn) = 1 (yes)
• CC(C)(ON=C1CCC(CN2CCN(c3nc(=O)c4cc(C(F)(F)F)cc([N+](=O)[O-])c4s3)CC2)CC1)C(=O)O (stereo not drawn) = 0 (no)
• NNC(=O)c1ccncc1 = 0 (no)
• O=C(O)CON=C1CCC(CN2CCN(c3nc(=O)c4cc(C(F)(F)F)cc([N+](=O)[O-])c4s3)CC2)CC1 (stereo not drawn) = 1 (yes)
• O=C(O)CNC1CCC(CN2CCN(c3nc(=O)c4cc(C(F)(F)F)cc([N+](=O)[O-])c4s3)CC2)CC1 (stereo not drawn) = 1 (yes)
• CC(C)(C)OC(=O)CNC(=O)C(C)(C)ON=C1CCC(CN2CCN(c3nc(=O)c4cc(C(F)(F)F)cc([N+](=O)[O-])c4s3)CC2)CC1 (stereo not drawn) = 1 (yes)
